Provide the reported denaturant midpoint (higher = more stable) of each item.
B1: Ribonuclease HI, P0A7Y4 (parent)
chain: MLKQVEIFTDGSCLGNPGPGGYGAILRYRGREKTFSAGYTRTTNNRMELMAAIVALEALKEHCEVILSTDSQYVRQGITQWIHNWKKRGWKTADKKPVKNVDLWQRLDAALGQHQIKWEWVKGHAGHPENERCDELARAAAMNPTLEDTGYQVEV

- Variants of: B1
- run_conditions: Escherichia coli (strain K12); pH 8.2; 25 °C; GdnHCl; CD; Tris-HCl 20 mM; reversible: yes; structure 2RN2; whole UniProt chain shown
Supply the numeric figure in M, leaving out any unit text.

Enquiry: Give the measured denaturant midpoint (higher = more stable) of H127A .
Return: 1.59

Enquiry: Give the measured denaturant midpoint (higher = more stable) of H62A .
Return: 1.76

Enquiry: Give the measured denaturant midpoint (higher = more stable) of H124A .
Return: 1.66

Enquiry: Give the measured denaturant midpoint (higher = more stable) of H83A .
Return: 1.63
